Each recorded value in this set is attributed to PubChem BioAssay AID1159580.

ASSAY NOTES: chemical genetic growth profiling, strain panel (AID 1159580);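 also: tested at 20 µM; growth read once vehicle control cultures reached saturation at 30 °C; 1 = growth at the plate median or of vehicle wells; lower values mean less growth of the strain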
CONDITION LABEL: S. cerevisiae deletion strains, growth OD, locus YGL240W, strain doc1, active compounds read low
The whole screen tested about 5,500 compounds, of which about 2,000 (36%) were called active. Inconclusive results (about 18%) are left out. This is one part of the list.
RECORDED METRIC: normalized growth
Please give the numeric answer without any surrounding text.

Worked cases, answers included:
CCN(CC)CCNC(=O)c1cc(Cl)c(N)cc1OC : 1.01
CO[C@@]1(NC(=O)Cc2cccs2)C(=O)N2C(C(=O)O)=C(COC(N)=O)CS[C@@H]21 : 1
COC(=O)[C@]1(C)CC[C@]2(C)CC[C@]3(C)C4=CC=C5C(=CC(=O)C(O)=C5C)[C@]4(C)CC[C@@]3(C)[C@@H]2C1 : 0.874

Entry Cc1cc(=O)n(-c2ccccc2)n1C , normalized growth reported as 1

Entry CC(=O)Oc1cc2c(c(C)c1OC(C)=O)CC1OC13C2(C)CCC1(C)C2CC(C)(C(=O)O)CCC2(C)CCC13C (stereo not given) , normalized growth reported as 1.02

====

Measured normalized growth accompanies every entry in the list below.
ASSAY NOTES: chemical genetic growth profiling, strain panel (AID 1159580);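 also: tested at 20 µM; growth read once vehicle control cultures reached saturation at 30 °C; 1 = growth at the plate median or of vehicle wells; lower values mean less growth of the strain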
CONDITION LABEL: S. cerevisiae deletion strains, growth OD, locus YGL078C, strain dbp3, active compounds read low
The whole screen tested about 5,500 compounds, of which about 2,000 (36%) were called active. Roughly 18% stayed inconclusive and do not appear here. This is one part of the list.
Please give the numeric answer without any surrounding text.

CCOc1ccc(C(=O)c2cc(O)c(OC)c(OC)c2O)cc1 : 1.03
COc1ccc2c(c1OC)OC[C@@H](c1ccc(OC)c(OC)c1OC)C2 : 1
NC[C@H]1O[C@H](O[C@H]2C(O[C@@H]3O[C@H](CO)[C@@H](O)[C@H]3O)[C@@H](O)[C@H](N)C[C@@H]2N)[C@H](N)[C@@H](O)[C@@H]1O (stereo partly drawn) : 0.988

Entry NC[C@H]1O[C@H](O[C@H]2[C@H](O)[C@@H](O[C@H]3O[C@H](CO)[C@@H](O)[C@H](N)[C@H]3O)[C@H](N)C[C@@H]2N)[C@H](N)C[C@@H]1O , normalized growth reported as 1

Entry Cc1cc(=O)n(-c2ccccc2)n1C , normalized growth reported as 0.982

Entry NC(=O)NO , normalized growth reported as 0.999

Entry COc1cc(O)cc(OC)c1OC , normalized growth reported as 1.01

Entry CC(=O)OCC(=O)[C@@]1(O)CCC2C3CCC4=CC(=O)CC[C@]4(C)C3[C@@H](O)C[C@@]21C (stereo partly drawn) , normalized growth reported as 0.99

Entry C#CC1(O)CCC2C3CCC4=CC(=O)CCC4(C)C3CCC21C (stereo not drawn) , normalized growth reported as 0.95

Entry COc1ccc(C(=O)c2ccc(O)cc2)c(O)c1O , normalized growth reported as 0.961

====

ASSAY NOTES: chemical genetic growth profiling, strain panel (AID 1159580);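 also: tested at 20 µM; growth read once vehicle control cultures reached saturation at 30 °C; 1 = growth at the plate median or of vehicle wells; lower values mean less growth of the strain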
CONDITION LABEL: S. cerevisiae deletion strains, growth OD, locus YGR229C, strain SMI1, active compounds read low
The campaign covered roughly 5,500 compounds. About 2,000 (36%) were called active. Roughly 18% stayed inconclusive and do not appear here. This is one part of the list.
RECORDED METRIC: normalized growth
Please give the numeric answer without any surrounding text.

NC1CC1c1ccccc1 (stereo unspecified) : 1.02
NC(=O)CNCCC(c1ccccc1)c1ccccc1 : 0.895
COc1cccc(OC)c1C(=O)N[C@@H]1C(=O)N2[C@@H]1SC(C)(C)[C@@H]2C(=O)O : 1.02

Now let's try a different one.
Entry COc1cccc(C(=O)NCCN2CCN(c3ccc(Cl)cc3)CC2)c1 , normalized growth reported as 1
